- Assay Method Text: In vivo kinetics of FA incorporation and turnover in brain phospholipids (intravenous radiotracer infusion, kinetic model)
- Parameters: species or system rat
- Condition Set: PtdSer; MEP
Readout Kind: JFA net incorporation rate from brain acyl-CoA (nmol/g/day)

>>> test_value("CC/C=C\\C/C=C\\C/C=C\\C/C=C\\C/C=C\\C/C=C\\CCC(=O)O [DHA, docosahexaenoic acid]")
198
>>> test_value("CCCCCCCCCCCCCCCC(=O)O [Palmitate, [1-14C]palmitate]")
849
>>> test_value("CC/C=C\\C/C=C\\C/C=C\\C/C=C\\C/C=C\\CCCCCC(=O)O [EPA→n-3 DPA]")
1.1
>>> test_value("CC/C=C\\C/C=C\\C/C=C\\C/C=C\\C/C=C\\CCCC(=O)O [EPA, eicosapentaenoic acid]")
1.2

====

- Assay Method Text: In vivo kinetics of FA incorporation and turnover in brain phospholipids (intravenous radiotracer infusion, kinetic model)
- Design: species or system rat
- Condition Set: EtnGpl; Vehicle
Readout Kind: JFA net incorporation rate from brain acyl-CoA (nmol/g/day)

>>> test_value("CC/C=C\\C/C=C\\C/C=C\\C/C=C\\C/C=C\\C/C=C\\CCC(=O)O [EPA→DHA]")
7.6
>>> test_value("CC/C=C\\C/C=C\\C/C=C\\C/C=C\\C/C=C\\CCCC(=O)O")
6.4
>>> test_value("CC/C=C\\C/C=C\\C/C=C\\C/C=C\\C/C=C\\CCCCCC(=O)O")
12

====

- Assay Method Text: In vivo kinetics of FA incorporation and turnover in brain phospholipids (intravenous radiotracer infusion, kinetic model)
- Design: species or system rat
- Condition Set: EtnGpl; Vehicle
- Method: Twenty-four hours postsurgery, a second catheter (iv catheter 24 gauge/0.75 inch, Angiocath™; Becton Dickinson) was implanted into the tail vein where rats received either vehicle or 10 mg/kg of MEP. […] The radiotracers were infused for 5 min via the tail vein catheter at a rate of 0.223(1 + e^−19.2t) ml/min (t is infusion time in minutes) ([37]) which achieves a steady-state plasma radioactivity within 1 min ([18], [38]). […]
Classification field: 1 = FFA rate of turnover at or over 8 %/day; 0 = FFA rate of turnover under 8 %/day.

>>> group("CCCCCCCCCCCCCCCC(=O)O [Palmitate, [1-14C]palmitate]")
1
>>> group("CC/C=C\\C/C=C\\C/C=C\\C/C=C\\C/C=C\\CCCCCC(=O)O")
1
>>> group("CC/C=C\\C/C=C\\C/C=C\\C/C=C\\C/C=C\\C/C=C\\CCC(=O)O [EPA→DHA]")
0
>>> group("CC/C=C\\C/C=C\\C/C=C\\C/C=C\\C/C=C\\C/C=C\\CCC(=O)O [DHA, docosahexaenoic acid]")
1
>>> group("CC/C=C\\C/C=C\\C/C=C\\C/C=C\\C/C=C\\CCCC(=O)O")
1

====

- Assay Method Text: In vivo kinetics of FA incorporation and turnover in brain phospholipids (intravenous radiotracer infusion, kinetic model)
- Set-up: species or system rat
- Condition Set: Total PL; MEP
Here the recorded JFA net incorporation rate from brain acyl-CoA is given for each entry.
Readout Kind: JFA net incorporation rate from brain acyl-CoA (nmol/g/day)

>>> test_value("CC/C=C\\C/C=C\\C/C=C\\C/C=C\\C/C=C\\C/C=C\\CCC(=O)O [EPA→DHA]")
1.9
>>> test_value("CC/C=C\\C/C=C\\C/C=C\\C/C=C\\C/C=C\\CCCCCC(=O)O [EPA→n-3 DPA]")
21
>>> test_value("CC/C=C\\C/C=C\\C/C=C\\C/C=C\\C/C=C\\CCCC(=O)O [EPA, eicosapentaenoic acid]")
31

====

- Assay Method Text: In vivo kinetics of FA incorporation and turnover in brain phospholipids (intravenous radiotracer infusion, kinetic model)
- Set-up: species or system rat
- Condition Set: ChoGpl; Vehicle
Here the recorded FFA rate of turnover is given for each entry.
Readout Kind: FFA rate of turnover

>>> test_value("CC/C=C\\C/C=C\\C/C=C\\C/C=C\\C/C=C\\C/C=C\\CCC(=O)O [DHA, docosahexaenoic acid]")
"150 ± 14 %/day"
>>> test_value("CC/C=C\\C/C=C\\C/C=C\\C/C=C\\C/C=C\\CCCCCC(=O)O")
"192 ± 25 %/day"
>>> test_value("CC/C=C\\C/C=C\\C/C=C\\C/C=C\\C/C=C\\CCCC(=O)O")
"46 ± 6.9 %/day"
>>> test_value("CC/C=C\\C/C=C\\C/C=C\\C/C=C\\C/C=C\\C/C=C\\CCC(=O)O [EPA→DHA]")
"0.30 ± 0.035 %/day"
>>> test_value("CCCCCCCCCCCCCCCC(=O)O [Palmitate, [1-14C]palmitate]")
"84 ± 33 %/day"

====

- Assay Method Text: Identification of radiolabeled FAs in brain phospholipids by HPLC and LSC after 14C-EPA infusion
- Format: in vivo, rat
- Condition Set: brain total phospholipids, MEP-treated rats
Here the recorded percent of total radiolabeled FAs is given for each entry.
Readout Kind: percent of total radiolabeled FAs (%)

>>> test_value("CCCCCCCCCCCCCCCC(=O)O [Palmitate, [1-14C]palmitate]")
2
>>> test_value("CC/C=C\\C/C=C\\C/C=C\\C/C=C\\C/C=C\\CCCC(=O)O")
56
>>> test_value("CC/C=C\\C/C=C\\C/C=C\\C/C=C\\C/C=C\\C/C=C\\CCC(=O)O")
3
>>> test_value("CC/C=C\\C/C=C\\C/C=C\\C/C=C\\C/C=C\\CCCCCC(=O)O")
38

====

Here the recorded JFA net incorporation rate from brain acyl-CoA is given for each entry.
- Assay Method Text: In vivo kinetics of FA incorporation and turnover in brain phospholipids (intravenous radiotracer infusion, kinetic model)
- Parameters: species or system rat
- Condition Set: Total PL; Vehicle
Readout Kind: JFA net incorporation rate from brain acyl-CoA

>>> test_value("CCCCCCCCCCCCCCCC(=O)O [Palmitate, [1-14C]palmitate]")
"32,728 ± 17,692 nmol/g/day"
>>> test_value("CC/C=C\\C/C=C\\C/C=C\\C/C=C\\C/C=C\\C/C=C\\CCC(=O)O [EPA→DHA]")
"7.9 ± 0.97 nmol/g/day"
>>> test_value("CC/C=C\\C/C=C\\C/C=C\\C/C=C\\C/C=C\\CCCCCC(=O)O [EPA→n-3 DPA]")
"18 ± 2.2 nmol/g/day"
>>> test_value("CC/C=C\\C/C=C\\C/C=C\\C/C=C\\C/C=C\\CCCC(=O)O [EPA, eicosapentaenoic acid]")
"47 ± 5.7 nmol/g/day"
>>> test_value("CC/C=C\\C/C=C\\C/C=C\\C/C=C\\C/C=C\\C/C=C\\CCC(=O)O [DHA, docosahexaenoic acid]")
"7,259 ± 958 nmol/g/day"

====

- Assay Method Text: In vivo kinetics of FA incorporation and turnover in brain phospholipids (intravenous radiotracer infusion, kinetic model)
- Design: species or system rat
- Condition Set: PtdIns; Vehicle
Here the recorded JFA net incorporation rate from brain acyl-CoA is given for each entry.
Readout Kind: JFA net incorporation rate from brain acyl-CoA (nmol/g/day)

>>> test_value("CC/C=C\\C/C=C\\C/C=C\\C/C=C\\C/C=C\\CCCCCC(=O)O")
2.3
>>> test_value("CC/C=C\\C/C=C\\C/C=C\\C/C=C\\C/C=C\\CCCC(=O)O")
4.5
>>> test_value("CC/C=C\\C/C=C\\C/C=C\\C/C=C\\C/C=C\\C/C=C\\CCC(=O)O")
688

====

Here the recorded JFA net incorporation rate from brain acyl-CoA is given for each entry.
- Assay Method Text: In vivo kinetics of FA incorporation and turnover in brain phospholipids (intravenous radiotracer infusion, kinetic model)
- Design: species or system rat
- Condition Set: PtdIns; MEP
Readout Kind: JFA net incorporation rate from brain acyl-CoA (nmol/g/day)

>>> test_value("CC/C=C\\C/C=C\\C/C=C\\C/C=C\\C/C=C\\C/C=C\\CCC(=O)O")
477
>>> test_value("CC/C=C\\C/C=C\\C/C=C\\C/C=C\\C/C=C\\CCCC(=O)O")
3.0
>>> test_value("CC/C=C\\C/C=C\\C/C=C\\C/C=C\\C/C=C\\CCCCCC(=O)O")
1.6

====

Here the recorded radiolabeled FA composition is given for each entry.
- Assay Method Text: Identification of radiolabeled FAs in brain phospholipids by HPLC and LSC after 14C-EPA infusion;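 for radiolabeled FA composition: percent of radiolabeled FAs within each phospholipid class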
- Type: in vivo, rat
- Condition Set: ChoGpl, vehicle-treated rats
Readout Kind: radiolabeled FA composition (%)

>>> test_value("CC/C=C\\C/C=C\\C/C=C\\C/C=C\\C/C=C\\C/C=C\\CCC(=O)O")
11
>>> test_value("CCCCCCCCCCCCCCCC(=O)O [Palmitate, [1-14C]palmitate]")
6
>>> test_value("CC/C=C\\C/C=C\\C/C=C\\C/C=C\\C/C=C\\CCCCCC(=O)O")
18
>>> test_value("CC/C=C\\C/C=C\\C/C=C\\C/C=C\\C/C=C\\CCCC(=O)O")
65
